Reported pIC50 values are given for each entry in this list.
# experimental target: MOZ-KAT6A (Homo sapiens, UniProt Q92794, A567V)
# Construct: encoding amino acid residues 507 to 778 (Uniprot Q92794-1) of human KAT6A; made in house; host or cells: E. coli BL21 DE3
# Sequence (Q92794 507-778 A567V limits assumed): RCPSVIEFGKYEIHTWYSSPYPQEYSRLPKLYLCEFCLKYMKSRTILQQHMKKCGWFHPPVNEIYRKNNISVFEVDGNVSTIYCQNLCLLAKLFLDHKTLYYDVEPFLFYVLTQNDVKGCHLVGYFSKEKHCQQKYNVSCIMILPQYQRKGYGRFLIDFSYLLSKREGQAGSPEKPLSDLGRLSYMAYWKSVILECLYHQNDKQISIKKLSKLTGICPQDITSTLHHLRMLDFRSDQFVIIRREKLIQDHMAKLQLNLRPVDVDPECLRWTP
# assay summary: Revised Acetyltransferase Biochemical Assay, KAT6A
# experimental parameters: Table 8 (MOZ-KAT6A), 1 μM Acetyl coenzyme A
pIC50: −log10 of the molar value.
measurement name: pIC50

INSERT INTO assay_data (molecule, measurement_name, obs_value) VALUES
  ('O=C(NCCc1ccccc1-c1n[nH]c(=O)o1)C1=Nc2ccccc2S(=O)(=O)N1', 'pIC50', 6.68),
  ('O=C(NCC(c1ccccc1)n1cccn1)C1=Nc2ccc(Br)cc2S(=O)(=O)N1 (centres unmarked)', 'pIC50', 7.77),
  ('O=C(NCC(c1ccccc1)c1ccccc1)C1=Nc2ccccc2S(=O)(=O)N1', 'pIC50', 6.97),
  ('O=C(NCC(O)C1CCCCC1)C1=Nc2ccc(Cl)cc2S(=O)(=O)N1 (centres unmarked)', 'pIC50', 5.01),
  ('COc1ccc2c(c1)S(=O)(=O)NC(C(=O)NCC(c1ccccc1)c1ccccc1)=N2', 'pIC50', 6.57),
  ('O=C(NCC(c1ccccc1)c1ncco1)C1=Nc2ccccc2S(=O)(=O)N1 (centres unmarked)', 'pIC50', 7.19),
  ('CNC(=O)CCOC(=O)C(CNC(=O)C1=Nc2ccc(I)cc2S(=O)(=O)N1)c1ccccc1 (centres unmarked)', 'pIC50', 7.36),
  ('O=C(NCC1(c2ccccn2)CCCCC1)C1=Nc2ccc(Cl)cc2S(=O)(=O)N1', 'pIC50', 6.54);

---

# experimental target: TIP60-KAT5 (Homo sapiens, UniProt Q92993)
# Construct: encoding amino acid residues 2 to 461 (Uniprot Q92993-2) of human KAT5 isoform; made in house; host or cells: E. coli BL21 DE3
# Sequence (Q92993 2-461 isoform Q92993-2): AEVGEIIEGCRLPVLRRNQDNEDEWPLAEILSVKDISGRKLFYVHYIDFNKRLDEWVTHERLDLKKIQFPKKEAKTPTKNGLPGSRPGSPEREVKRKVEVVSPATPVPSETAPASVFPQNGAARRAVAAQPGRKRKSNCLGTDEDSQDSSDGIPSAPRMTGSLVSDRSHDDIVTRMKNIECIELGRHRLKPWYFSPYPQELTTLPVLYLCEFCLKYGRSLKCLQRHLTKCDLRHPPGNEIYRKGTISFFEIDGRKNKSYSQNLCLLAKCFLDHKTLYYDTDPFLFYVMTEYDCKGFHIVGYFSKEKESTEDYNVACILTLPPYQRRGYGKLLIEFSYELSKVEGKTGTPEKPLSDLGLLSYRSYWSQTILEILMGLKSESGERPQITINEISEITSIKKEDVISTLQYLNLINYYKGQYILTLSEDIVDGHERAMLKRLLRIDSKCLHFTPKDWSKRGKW
# assay summary: Acetyltransferase biochemical assay (AlphaScreen), KAT5
# experimental parameters: Table 1 (TIP60-KAT5); 0.4 μM Acetyl coenzyme A, histone H4, 10 nM enzyme
pIC50: −log10 of the molar value.
measurement name: pIC50

INSERT INTO results (compound, censoring_operator, obs_value) VALUES
  ('O=C(NCCc1ccc(CO)cc1)C1=Nc2ccc(I)cc2S(=O)(=O)N1', '<', 3.90),
  ('N#Cc1ccccc1CCNC(=O)C1=Nc2ccccc2S(=O)(=O)N1', '<', 3.90),
  ('O=C(NCC(c1ccccc1)c1ncco1)C1=Nc2ccc(-c3cscn3)cc2S(=O)(=O)N1 (centres unmarked)', '=', 5.50),
  ('O=C(NCCc1ccccc1F)C1=Nc2ccc(Br)cc2S(=O)(=O)N1', '=', 5.31),
  ('C#Cc1ccc2c(c1)S(=O)(=O)NC(C(=O)NCC(c1ccccc1)c1ncco1)=N2 (centres unmarked)', '=', 6.19),
  ('O=C(NCC(c1ccccc1)c1ncco1)C1=Nc2cccnc2S(=O)(=O)N1 (centres unmarked)', '=', 4.02),
  ('O=C(NCC(O)c1ccccc1)C1=Nc2ccccc2S(=O)(=O)N1 (centres unmarked)', '<', 3.90),
  ('O=C(NCC(c1ccccc1)c1ncco1)C1=Nc2ccccc2S(=O)(=O)N1 (centres unmarked) [Example 46]', '=', 5.01),
  ('Cc1coc(C(CNC(=O)C2=Nc3ccccc3S(=O)(=O)N2)c2ccccc2)n1 (centres unmarked)', '=', 4.70),
  ('CC(=O)c1ccc2c(c1)S(=O)(=O)NC(C(=O)NCC(c1ccccc1)c1ncco1)=N2 (centres unmarked)', '=', 5.62),
  ('Cc1ccc(CCNC(=O)C2=Nc3ccccc3S(=O)(=O)N2)cc1', '<', 3.90),
  ('O=C(NCC(CO)c1ccccc1)C1=Nc2ccccc2S(=O)(=O)N1 (centres unmarked)', '<', 3.90),
  ('O=C(NCC(c1ccccc1)c1cc2ccccc2[nH]1)C1=Nc2ccc(Br)cc2S(=O)(=O)N1 (centres unmarked)', '=', 5.22),
  ('O=C(NCCc1ccccc1C(=O)O)C1=Nc2ccccc2S(=O)(=O)N1', '=', 3.95),
  ('Cc1noc(C(CNC(=O)C2=Nc3ccc(I)cc3S(=O)(=O)N2)c2ccccc2)n1 (centres unmarked)', '=', 6.57),
  ('O=C(NCCc1ccccn1)C1=Nc2ccc(Br)cc2S(=O)(=O)N1', '=', 4.06),
  ('Cc1ccc2c(c1)S(=O)(=O)NC(C(=O)NCC(c1ccccc1)c1ccccc1)=N2', '=', 4.62),
  ('O=C(NCCc1ccccc1-c1ncco1)C1=Nc2ccccc2S(=O)(=O)N1', '=', 4.93),
  ('O=C(NCC(c1ccccc1)c1ncco1)C1=Nc2ccccc2S(=O)(=O)N1 (single isomer, unassigned) [Example 137]', '=', 5.51),
  ('O=C(NCC(c1ccccc1)c1ncco1)C1=Nc2ccc(Br)cc2S(=O)(=O)N1 (single isomer, unassigned) [Example 139]', '=', 5.89),
  ('O=C(NCCc1ccccc1O)C1=Nc2ccc(Br)cc2S(=O)(=O)N1', '=', 5.35),
  ('COC(CNC(=O)C1=Nc2ccc(I)cc2S(=O)(=O)N1)c1ccccc1 (centres unmarked)', '=', 5.92),
  ('O=C(NCCc1ccccc1-c1cccnc1)C1=Nc2ccccc2S(=O)(=O)N1', '<', 3.90),
  ('O=C(NCCc1ccccc1Br)C1=Nc2ccccc2S(=O)(=O)N1', '=', 4.20),
  ('O=C(NCCc1ccccc1-n1nccn1)C1=Nc2ccc(I)cc2S(=O)(=O)N1', '=', 6.49),
  ('COc1ccccc1CCNC(=O)C1=Nc2ccc(I)cc2S(=O)(=O)N1', '=', 5.93),
  ('O=C(NCC(O)c1cccc(F)c1)C1=Nc2ccc(I)cc2S(=O)(=O)N1 (centres unmarked)', '=', 4.50),
  ('O=C(NCC(O)c1cccc(OCc2ccccc2)c1)C1=Nc2ccc(I)cc2S(=O)(=O)N1 (centres unmarked)', '<', 3.90),
  ('O=C(NCC(c1ccccc1)n1cccc1)C1=Nc2ccccc2S(=O)(=O)N1 (centres unmarked)', '=', 4.24);

---

Reported IC50 values are given for each entry in this list.
# experimental target: HBO-KAT7 (Homo sapiens, UniProt O95251)
# Construct: encoding amino acid residues 325 to 611 (Uniprot 095251-1) of human KAT7; made in house; host or cells: E. coli BL21 DE3 RIL
# Sequence (O95251 with tags, fused parts or gaps): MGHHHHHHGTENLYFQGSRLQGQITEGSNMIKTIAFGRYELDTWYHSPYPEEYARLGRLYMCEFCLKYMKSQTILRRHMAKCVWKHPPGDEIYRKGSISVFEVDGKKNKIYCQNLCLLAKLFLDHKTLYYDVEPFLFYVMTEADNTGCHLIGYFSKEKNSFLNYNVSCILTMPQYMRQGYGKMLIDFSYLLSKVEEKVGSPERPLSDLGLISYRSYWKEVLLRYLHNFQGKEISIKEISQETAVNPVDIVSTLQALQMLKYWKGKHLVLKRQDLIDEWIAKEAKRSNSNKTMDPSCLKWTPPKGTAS
# assay summary: Acetyltransferase biochemical assay (AlphaScreen), KAT7
# experimental parameters: Table 3 (HBO-KAT7); 0.4 μM Acetyl coenzyme A, histone H3.1, 40 nM enzyme
measurement name: IC50 (µM)

INSERT INTO measurements (compound, experimental_target, measurement_name, result_units, censoring_operator, obs_value) VALUES
  ('O=C(NCCc1ccncc1)C1=Nc2ccc(I)cc2S(=O)(=O)N1', 'HBO-KAT7 (Homo sapiens, UniProt O95251)', 'IC50', 'µM', '>', 125),
  ('O=C(NCCc1ccccc1-n1nccn1)C1=Nc2ccc(I)cc2S(=O)(=O)N1', 'HBO-KAT7 (Homo sapiens, UniProt O95251)', 'IC50', 'µM', '=', 0.555),
  ('O=C(NCC(c1ccccc1)n1cccn1)C1=Nc2ccc(Br)cc2S(=O)(=O)N1 (stereo not drawn)', 'HBO-KAT7 (Homo sapiens, UniProt O95251)', 'IC50', 'µM', '=', 0.0836),
  ('Cn1cc(-c2ccccc2CCNC(=O)C2=Nc3ccccc3S(=O)(=O)N2)cn1', 'HBO-KAT7 (Homo sapiens, UniProt O95251)', 'IC50', 'µM', '=', 9.45),
  ('O=C(NCCc1ccccc1Br)C1=Nc2ccccc2S(=O)(=O)N1', 'HBO-KAT7 (Homo sapiens, UniProt O95251)', 'IC50', 'µM', '=', 15.7),
  ('O=C(NCCc1ccccn1)C1=Nc2ccc(I)cc2S(=O)(=O)N1', 'HBO-KAT7 (Homo sapiens, UniProt O95251)', 'IC50', 'µM', '=', 23.3),
  ('CS(=O)(=O)Nc1ccc2c(c1)S(=O)(=O)NC(C(=O)NCC(c1ccccc1)c1ncco1)=N2 (stereo not drawn)', 'HBO-KAT7 (Homo sapiens, UniProt O95251)', 'IC50', 'µM', '=', 3.41),
  ('Nc1ccc(CCNC(=O)C2=Nc3ccc(I)cc3S(=O)(=O)N2)cc1', 'HBO-KAT7 (Homo sapiens, UniProt O95251)', 'IC50', 'µM', '=', 112),
  ('Cn1cc(-c2ccc3c(c2)S(=O)(=O)NC(C(=O)NCC(c2ccccc2)c2ncco2)=N3)cn1 (stereo not drawn)', 'HBO-KAT7 (Homo sapiens, UniProt O95251)', 'IC50', 'µM', '=', 1.93),
  ('Cc1cccc(C(CNC(=O)C2=Nc3ccc(I)cc3S(=O)(=O)N2)c2ncco2)c1 (stereo not drawn)', 'HBO-KAT7 (Homo sapiens, UniProt O95251)', 'IC50', 'µM', '=', 0.038),
  ('O=C(NCC(F)c1ccccc1)C1=Nc2ccc(I)cc2S(=O)(=O)N1 (stereo not drawn)', 'HBO-KAT7 (Homo sapiens, UniProt O95251)', 'IC50', 'µM', '=', 1.72),
  ('O=C(NCC(O)c1ccc(F)cc1)C1=Nc2ccc(I)cc2S(=O)(=O)N1 (stereo not drawn)', 'HBO-KAT7 (Homo sapiens, UniProt O95251)', 'IC50', 'µM', '=', 34.7),
  ('O=C(NCCc1ccccc1OC(F)F)C1=Nc2ccc(I)cc2S(=O)(=O)N1', 'HBO-KAT7 (Homo sapiens, UniProt O95251)', 'IC50', 'µM', '=', 0.339),
  ('CC(=O)c1ccc2c(c1)S(=O)(=O)NC(C(=O)NCC(c1ccccc1)c1ncco1)=N2 (stereo not drawn)', 'HBO-KAT7 (Homo sapiens, UniProt O95251)', 'IC50', 'µM', '=', 1.99),
  ('COC(=O)C(CNC(=O)C1=Nc2ccccc2S(=O)(=O)N1)c1ccccc1 (stereo not drawn)', 'HBO-KAT7 (Homo sapiens, UniProt O95251)', 'IC50', 'µM', '=', 4.11),
  ('O=C(NCC(c1ccccc1)c1ncco1)C1=Nc2ccc(C(F)(F)F)cc2S(=O)(=O)N1 (stereo not drawn)', 'HBO-KAT7 (Homo sapiens, UniProt O95251)', 'IC50', 'µM', '=', 3.52),
  ('O=C(NCCc1ccccc1O)C1=Nc2ccccc2S(=O)(=O)N1', 'HBO-KAT7 (Homo sapiens, UniProt O95251)', 'IC50', 'µM', '=', 84.4),
  ('C#Cc1ccc2c(c1)S(=O)(=O)NC(C(=O)NCC(c1ccccc1)c1ccccc1)=N2', 'HBO-KAT7 (Homo sapiens, UniProt O95251)', 'IC50', 'µM', '=', 0.154),
  ('O=C(NCC(c1cccc(OCC2CC2)c1)c1ncco1)C1=Nc2ccc(I)cc2S(=O)(=O)N1 (stereo not drawn)', 'HBO-KAT7 (Homo sapiens, UniProt O95251)', 'IC50', 'µM', '=', 1.74),
  ('O=C(NCCc1ccccc1-c1ncco1)C1=Nc2ccc(I)cc2S(=O)(=O)N1', 'HBO-KAT7 (Homo sapiens, UniProt O95251)', 'IC50', 'µM', '=', 0.981),
  ('O=C(NCCc1ccccc1)C1=Nc2ccc(Br)cc2S(=O)(=O)N1', 'HBO-KAT7 (Homo sapiens, UniProt O95251)', 'IC50', 'µM', '=', 4.56);
